- ASSAY_EXPLANATION: NCI Yeast Anticancer Drug Screen. Data for the mec2-1 strain (AID 157)
- CONDITION_DESCRIPTION: S. cerevisiae mec2-1 strain, at 50.0 µM, stronger effect = higher value
Compounds without any hit were thinned out: in the full panel of roughly 79,000, 15% have a hit.
Using growth inhibition as the sorting value, the categories are c1 = under -20%, c2 = from -20% up to 10%, c3 = 10% and over

# MOLECULE, CATEGORY_LABEL
measured = [
    ("Cc1ncc(CO)c(/C=N\\Nc2ccc([N+](=O)[O-])cc2[N+](=O)[O-])c1O", "c3"),
    ("O=C1C=C(Nc2cccnc2)c2ccccc2C1=O", "c2"),
    ("Nc1cccc(C(F)(F)F)c1[N+](=O)[O-]", "c1"),
    ("OCC1c2ccccc2C(CO)c2c1ccc1ccccc21 (configuration not stated)", "c2"),
    ("CC(O)C1OC(n2cnc3c(=O)[nH]cnc32)C(O)C1O (configuration not stated)", "c1"),
    ("O=[N+]([O-])c1ccc(COP(=O)(O)OCc2ccc([N+](=O)[O-])cc2)cc1", "c3"),
    ("CC(C)c1ccc2nc3ccc(C(=O)NCCN(C)C)cn3c(=O)c2c1", "c2"),
    ("O=C1C=C(Nc2ccc(Cl)cc2Cl)c2ccccc2C1=O", "c3"),
    ("CC(C)(O)CCC(C)(C)O", "c2"),
    ("Nc1cc2c(cc1Br)-c1ccccc1C2Br (configuration not stated)", "c2"),
    ("CCCC(O)C(C)(C)C (configuration not stated)", "c1"),
    ("C/C(=N\\NC(=S)Nc1ccc([N+](=O)[O-])cc1S(=O)(=O)O)c1ccccn1", "c3"),
]

----------
- ASSAY_EXPLANATION: NCI Yeast Anticancer Drug Screen. Data for the mec2-1 strain (AID 157)
- CONDITION_DESCRIPTION: S. cerevisiae mec2-1 strain, at 50.0 µM, stronger effect = higher value
This is part of a sample that, as a whole, favours compounds with a hit. Of some 79,000 tested, about 15% had one in any assay.
Assign T to entries whose growth inhibition meets or exceeds 20%; assign F to the rest.

# COMPOUND, CATEGORY_LABEL
records = [
    ("CCCCCN(CCOC(=O)c1ccc([N+](=O)[O-])cc1)CCOC(=O)c1ccc([N+](=O)[O-])cc1", "F"),
    ("O=C(/C=C\\c1ccc(Cl)cc1)c1ccccc1", "F"),
    ("C[N+](C)(C)c1ccc(C(N)C(=O)O)cc1 (stereo unspecified)", "F"),
    ("NC(N)=NCCCCC(=O)Nc1ccc(S(N)(=O)=O)cc1", "F"),
    ("COC(=O)c1nc(SC)[nH]c1CC(N)=O", "T"),
    ("O=S(=O)(c1ccc(NC(=S)NCc2ccco2)cc1)N1CCCCC1", "F"),
    ("O=c1oc2ccccc2c(O)c1C(c1cccc(C(c2c(O)c3ccccc3oc2=O)c2c(O)c3ccccc3oc2=O)c1)c1c(O)c2ccccc2oc1=O", "T"),
    ("CN(CC(=O)O)Cc1oc(CO)cc(=O)c1O", "F"),
    ("CC(Br)CNC(=O)c1ccc([N+](=O)[O-])cc1 (stereo unspecified)", "F"),
    ("COc1ccc2c(c1)NC(C(C)C)=NS2(=O)=O", "F"),
    ("Cc1ccc(NC(=O)CCC(=O)O)cc1Cl", "F"),
]

----------
- ASSAY_EXPLANATION: NCI Yeast Anticancer Drug Screen. Data for the mlh1 rad18 strain (AID 175)
- CONDITION_DESCRIPTION: S. cerevisiae mlh1 rad18 strain growth inhibition; at 50.0 µM; stronger effect = higher value
- Protocol: Growth inhibition of yeast strains with defined genetic alterations is measured as a screen for potential anti-cancer activity. Selected strains with alterations in DNA damage repair or cell cycle control were exposed to compounds and growth inhibition was measured relative to vehicle treated controls. The strain used in this assay is mlh1 rad18
The panel holds about 79,000 compounds, 15% with a hit somewhere; the sample as a whole holds those more often.

# COMPOUND, QUANTITY_UNIT, growth inhibition
measured = [
    ("O=C(Nc1ccccc1)C1C2C=CC(CC2)C1C(=O)Nc1ccccc1 (configuration not stated)", "%", -13.6),
    ("O=C1CSC(=S)N1c1ccccc1", "%", 2.9),
    ("COc1ccc(CCN2CCc3c(C)c(C#N)c4nc5ccccc5n4c32)cc1OC", "%", 34.5),
    ("COc1ccc(OC)c2c1CCCC2", "%", 7.1),
    ("S=c1sc2c(Cl)ncnc2n1-c1ccccc1", "%", 5.6),
    ("O/N=C1/C2C=CC(C2)C1Cl (configuration not stated)", "%", -16.9),
    ("O=C(OCCCl)C1CC2C=CC1C2 (configuration not stated)", "%", -3.4),
    ("COC1CC(OC2C(C)OC(OC3C(C)OC(OC4C(O)CC(O[C@H]5CC[C@@]6(C)C(=CC[C@]7(O)[C@@H]6C[C@@H](OC(=O)/C=C/c6ccccc6)[C@@]6(C)[C@]7(O)CC[C@@]6(O)C(C)=O)C5)OC4C)CC3OC)CC2OC)OC(C)C1O (some centres not stated)", "%", -53.8),
    ("Cc1[nH]c2ccc(C(=O)NN)cc2c1CC(=O)NN", "%", 25.1),
    ("CC1=CC(=O)Nc2ccccc2S1", "%", 23.6),
    ("CC1(C)C(=O)CC1C(=O)O (configuration not stated)", "%", 8.75),
    ("CC1CCC(C(C)C)=C(C2CCCCC2)C1 (configuration not stated)", "%", 6.65),
]

----------
- ASSAY_EXPLANATION: NCI Yeast Anticancer Drug Screen. Data for the cln2 rad14 strain (AID 165);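 also: 0% = growth equal to vehicle treated cultures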
- CONDITION_DESCRIPTION: S. cerevisiae cln2 rad14 strain, at 50.0 µM, stronger effect = higher value
The panel holds about 79,000 compounds, 15% with a hit somewhere; the sample as a whole holds those more often. Where a SMILES comes first, the peptide text is derived from it. [ ]: non-standard residue; d: D form. The star is where a group is joined. ξ: configuration not given here. ΔPro = O=C(O)[CH]1C=CCN1; Cbz = O=C(OCc1ccccc1)*; ξM = CSCCC(N)C(=O)O

# COMPOUND, growth inhibition, %
rows = [
    ("OCC[N+]12CCCN1CCC2", -12.9),
    ("Cn1nc(-c2ccccc2)c([N+](=O)[O-])c1NCc1ccccc1", -29.1),
    ("CCN1CCCC(C#N)(c2ccccc2)CC1 (stereo not drawn)", 8.9),
    ("CSC1=NC=C(C#N)C2=NC(c3c(F)cccc3Cl)NN12 (stereo not drawn)", 26.2),
    ("CSCCC(NC(=O)CNC(=O)CNC(=O)OCc1ccccc1)C(=O)O (stereo not drawn) (Cbz-Gly-Gly-[ξM]-OH)", 98.4),
    ("NCC1OCOC2C(C(=O)O)OCOC12 (stereo not drawn)", -16),
    ("O=C(O)C1C=CCN1C(=O)C1C=CCN1C(=O)C1C=CCN1 (stereo not drawn) (H-[ΔPro]-[ΔPro]-[ΔPro]-OH; configuration not given here)", 0.05),
    ("CC(=O)OC1CC(O)C23COC(O)C1(C)C2CC(O)C1(C)C3C(=O)C(O)C2(C)C(c3ccoc3)CC3OC321 (stereo not drawn)", 0.2),
    ("CC(C)([NH-])C[NH-].[Cl][Pt+2][Cl]", -23.4),
    ("CC1OC1C(=O)C1(O)C(C)C(O)C23OC2(C(O)c2c(O)cccc2C3=O)C1O (stereo not drawn)", -1.1),
    ("COC(=O)C(N)CO (stereo not drawn)", 4.35),
    ("CCCOC(=O)NC(C)C(=O)NC(CCC(=O)NC(CCCC(N)C(=O)O)C(=O)NC(C)C(=O)O)C(=O)O (stereo not drawn)", -9.25),
    ("c1ccc(CCc2cccnc2)nc1", 50),
    ("CC1CCCC2(CC[N+](C)(CCC[N+](C)(C)C)CC2)C1 (stereo not drawn)", 15.1),
    ("COc1ccccc1/C=N/Nc1nnc2c3ccccc3c3ncccc3c2n1", -10.8),
    ("CN(C(=O)c1ccccc1)C1CCCC(=O)CC1 (stereo not drawn)", 9.95),
    ("NC(=O)N(CCO)/N=C/c1ccc([N+](=O)[O-])o1", 17.9),
    ("N#CC(C#N)=CNC(N)=S", 13.7),
    ("COc1ccc(C2(C)OC(=O)c3ccccc32)c2ccccc12 (stereo not drawn)", 39.2),
    ("Fc1ccc(N2CSC(=S)N(c3ccc(F)cc3F)C2)c(F)c1", 6.8),
    ("CCc1ccccc1NC(=O)/C(CC(=O)c1c(C)n([O-])c2ccccc2[n+]1=O)=N\\NS(=O)(=O)c1ccc(C)cc1", 12.7),
    ("C=Cc1cccc([N+](=O)[O-])c1", 16.5),
    ("COC(=O)NC1=Nc2ccc(Cl)cc2NS1", 2.05),
]
